Where do the numbers come from? From ChEMBL document CHEMBL1156482.

# assayed-target: C-X-C chemokine receptor type 4 (Homo sapiens, UniProt P61073, V196A)
# Sequence (P61073 whole entry V196A): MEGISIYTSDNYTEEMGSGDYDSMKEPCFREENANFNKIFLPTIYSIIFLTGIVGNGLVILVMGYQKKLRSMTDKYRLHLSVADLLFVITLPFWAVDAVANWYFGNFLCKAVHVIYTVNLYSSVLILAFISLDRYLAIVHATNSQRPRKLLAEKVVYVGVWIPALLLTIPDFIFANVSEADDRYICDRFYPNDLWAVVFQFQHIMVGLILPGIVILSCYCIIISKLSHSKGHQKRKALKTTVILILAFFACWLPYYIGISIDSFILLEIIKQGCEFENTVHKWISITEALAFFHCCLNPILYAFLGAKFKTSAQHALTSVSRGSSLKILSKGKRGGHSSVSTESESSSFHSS
# protocol-description: Antagonist activity at human CXCR4 V196A mutant expressed in COS7 cells coexpressing G protein Gqi4myr assessed as inhibition of CXCL12-induced phosphatidylinositol turnover
# Type: functional, cell-based, COS-7
Please go through the items and note down their Ki.
Enter your answer as a number in nM; do not include the unit.

What Ki value was documented for this compound, Cc1ccc(CN2CCCNCCNCCCNCC2)cc1 ?
28000

Let us now turn to c1ccc(CNCc2ccc(CN3CCCNCCNCCCNCC3)cc2)cc1
1300

Same lookup for c1ccc(CNCc2ccc(CN3CCCNCCNCCCNCC3)cc2)nc1 , please.
200
